MEASURED ON: UniProt P30551
Sequence (P30551 whole entry): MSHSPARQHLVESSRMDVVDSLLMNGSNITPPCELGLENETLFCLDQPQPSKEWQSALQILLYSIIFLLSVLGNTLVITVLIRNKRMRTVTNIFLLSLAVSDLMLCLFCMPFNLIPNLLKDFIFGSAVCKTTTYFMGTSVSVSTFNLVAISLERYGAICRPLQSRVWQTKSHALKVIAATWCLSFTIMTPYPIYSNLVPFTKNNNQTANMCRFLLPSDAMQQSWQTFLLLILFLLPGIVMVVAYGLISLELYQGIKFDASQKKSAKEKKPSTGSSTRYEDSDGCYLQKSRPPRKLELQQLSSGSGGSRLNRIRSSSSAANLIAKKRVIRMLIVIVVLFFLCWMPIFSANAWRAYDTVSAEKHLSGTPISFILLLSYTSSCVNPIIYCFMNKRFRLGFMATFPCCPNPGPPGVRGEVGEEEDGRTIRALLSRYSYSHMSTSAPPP
IC50 reference
# number then unit; no other words

{"COMPOUND STRUCTURE STRING": "CN1C(=O)[C@H](NC(=O)Nc2cccc(CNc3nn[nH]n3)c2)N=C(c2ccccc2)c2ccccc21", "IC50": "3 µM"}
{"COMPOUND STRUCTURE STRING": "Cc1ccc(NC(=O)N[C@@H]2N=C(c3ccccc3)c3ccccc3N(C)C2=O)cc1Nc1nn[nH]n1", "IC50": "3 µM"}
{"COMPOUND STRUCTURE STRING": "CN1C(=O)[C@H](NC(=O)Nc2cccc(Nc3nn[nH]n3)c2)N=C(c2ccccc2)c2ccccc21", "IC50": "3 µM"}

For the next question, use this compound.
Fill in: IC50 of "CN1C(=O)[C@H](NC(=O)Nc2cccc(N(C)c3nn[nH]n3)c2)N=C(c2ccccc2)c2ccccc21" is ___
3 µM

====

STUDY CONDITIONS: buffer, pH 0
Description: The solubility is evaluated at a pH 0f 7.4
S listing for selected compounds.
Answer in µg/mL, number only, no unit symbol.

{"COMPOUND STRUCTURE STRING": "CN1C(=O)[C@H](NC(=O)Nc2cccc(N(C)c3nn[nH]n3)c2)N=C(c2ccccc2)c2ccccc21", "UNIT LABEL": "µg/mL", "S": 0.16}
{"COMPOUND STRUCTURE STRING": "CN1C(=O)[C@H](NC(=O)Nc2cccc(Nc3nn[nH]n3)c2)N=C(c2ccccc2)c2ccccc21", "UNIT LABEL": "µg/mL", "S": 0.1}
{"COMPOUND STRUCTURE STRING": "CN1C(=O)[C@H](NC(=O)Nc2cccc(N(C)c3nn[nH]n3)c2)N=C(C2CCCCC2)c2ccccc21", "UNIT LABEL": "µg/mL", "S": 60}
{"COMPOUND STRUCTURE STRING": "CN1C(=O)[C@H](NC(=O)Nc2cccc(CNc3nn[nH]n3)c2)N=C(c2ccccc2)c2ccccc21", "UNIT LABEL": "µg/mL", "S": 0.02}

Now consider the entry below.
Which S reading was recorded for the compound "Cc1ccc(NC(=O)N[C@@H]2N=C(C3CCCCC3)c3ccccc3N(C)C2=O)cc1Nc1nn[nH]n1" ?
57

====

STUDY CONDITIONS: buffer, pH 0
QUANTITY NAME: S (µg/mL)
// units = µg/mL; emit number, no label

{"COMPOUND STRUCTURE STRING": "Cc1ccc(NC(=O)N[C@@H]2N=C(c3ccccc3)c3ccccc3N(C)C2=O)cc1Nc1nn[nH]n1", "RESULT VALUE": 0.88}

Given the entry "CN1C(=O)[C@H](NC(=O)Nc2ccc3c(c2)N(c2nn[nH]n2)CC3)N=C(c2ccccc2)c2ccccc21" , report its measured S.
0.87

What value of S has been recorded for this entry: "Cc1ccc(NC(=O)N[C@@H]2N=C(C3CCCCC3)c3ccccc3N(C)C2=O)cc1N(C)c1nn[nH]n1"
0.49

Form field: reported S of "CN1C(=O)[C@H](NC(=O)Nc2cccc(CNc3nn[nH]n3)c2)N=C(C2CCCCC2)c2ccccc21"
3.7

====

ASSAY EXPLANATION: physchem
STUDY CONDITIONS: buffer, pH 7.4
Description: Lipophilicity was measured at pH 7.4
I would appreciate it if you labelled entries T when logD is 1 or higher, otherwise F.

{"COMPOUND STRUCTURE STRING": "CN1C(=O)[C@H](NC(=O)Nc2cccc(Nc3nn[nH]n3)c2)N=C(c2ccccc2)c2ccccc21", "ASSIGNED LABEL": "F"}
{"COMPOUND STRUCTURE STRING": "CN1C(=O)[C@H](NC(=O)Nc2ccc3c(c2)N(c2nn[nH]n2)CC3)N=C(c2ccccc2)c2ccccc21", "ASSIGNED LABEL": "T"}
{"COMPOUND STRUCTURE STRING": "CN1C(=O)[C@H](NC(=O)Nc2cccc(N(C)c3nn[nH]n3)c2)N=C(c2ccccc2)c2ccccc21", "ASSIGNED LABEL": "T"}
{"COMPOUND STRUCTURE STRING": "CN1C(=O)[C@H](NC(=O)Nc2cccc(CNc3nn[nH]n3)c2)N=C(c2ccccc2)c2ccccc21", "ASSIGNED LABEL": "T"}

Next up:
Answer whether logD of "Cc1ccc(NC(=O)N[C@@H]2N=C(c3ccccc3)c3ccccc3N(C)C2=O)cc1Nc1nn[nH]n1" is greater than or equal to 1.
T
